System: Vero E6 infected with SARS-CoV-2
protocol_details: inhibition of SARS-CoV-2 cytopathic effect; higher = more antiviral protection, active = above 15
particulars: 100 nM; 48 h
Provide the recorded inhibition of SARS-CoV-2 cytopathic effect for the entries that follow.

Enquiry: Which measured inhibition of SARS-CoV-2 cytopathic effect value corresponds to Cc1ccsc1/C=C/C1=NCCCN1C [morantel] ?
Return: -2.09% (inactive)

Enquiry: Which measured inhibition of SARS-CoV-2 cytopathic effect value corresponds to Nc1nc(-c2nn(Cc3ccccc3F)c3ncccc23)ncc1C1CC1 ?
Return: -0.39% (inactive)

Enquiry: Which measured inhibition of SARS-CoV-2 cytopathic effect value corresponds to Cc1cc(C)c(NC(=O)N(Cc2ccc3c(c2)Cc2ccccc2-3)C2CCCCCC2)c(C)c1 ?
Return: 1.89% (inactive)

Enquiry: Which measured inhibition of SARS-CoV-2 cytopathic effect value corresponds to CC1CCC(NC(=O)N(CCCl)N=O)CC1 (stereo not given) [semustine] ?
Return: -3.63% (inactive)

Enquiry: Which measured inhibition of SARS-CoV-2 cytopathic effect value corresponds to COc1ccc(-c2oc3c(CC=C(C)C)c(O)cc(O)c3c(=O)c2O)cc1 [icaritin] ?
Return: 0.02% (inactive)
